Reference source: ChEMBL document CHEMBL1165859

experiment: Cytotoxicity against Balb/C mouse macrophages assessed as cell viability after 24 hrs by MTT assay; format: cell-based; conditions: Macrophage
So I've got a bunch of molecules here, and I need their LC50 values.

>>> reported_measurement("C[C@]12CC[C@H](OC(=O)c3ccc(N)cc3)CC1=CC[C@@H]1[C@@H]2CC[C@]2(C)NC(=O)CC[C@@H]12")
"25.1 µM"
>>> reported_measurement("COc1ccc(C(=O)O[C@H]2CC[C@@]3(C)C(=CC[C@@H]4[C@@H]3CC[C@]3(C)NC(=O)CC[C@@H]43)C2)cc1")
"8.4 µM"
>>> reported_measurement("C[C@]12CC[C@H](OC(=O)c3ccc([N+](=O)[O-])cc3)CC1=CC[C@@H]1[C@@H]2CC[C@]2(C)NC(=O)CC[C@@H]12")
"27.8 µM"

Could you tell me LC50 for each of these molecules? They are listed below.
1. Cc1ccc(C(=O)O[C@H]2CC[C@@]3(C)C(=CC[C@@H]4[C@@H]3CC[C@]3(C)NC(=O)CC[C@@H]43)C2)cc1
2. C[C@]12CC[C@H](OC(=O)c3ccc(Cl)cc3)CC1=CC[C@@H]1[C@@H]2CC[C@]2(C)NC(=O)CC[C@@H]12
3. C[C@]12CC[C@H](OC(=O)COc3ccccc3)CC1=CC[C@@H]1[C@@H]2CC[C@]2(C)NC(=O)CC[C@@H]12
4. C[C@]12CC[C@H](OC(=O)c3ccccc3)CC1=CC[C@@H]1[C@@H]2CC[C@]2(C)NC(=O)CC[C@@H]12
5. C[C@]12CC[C@H](OC(=O)c3ccc(O)cc3)CC1=CC[C@@H]1[C@@H]2CC[C@]2(C)NC(=O)CC[C@@H]12
6. CC(C)(C)NC(=O)[C@H]1CC[C@H]2[C@@H]3CC[C@H]4NC(=O)C=C[C@]4(C)[C@H]3CC[C@]12C [FINASTERIDE]
7. C[C@]12CC[C@H](OC(=O)CCl)CC1=CC[C@@H]1[C@@H]2CC[C@]2(C)NC(=O)CC[C@@H]12

["22.8 µM", "100 µM", "11.7 µM", "43.6 µM", "75 µM", "28.2 µM", "94.1 µM"]
